Overview of recorded viability at 24 h, 10 ug/ml for various compounds
experiment: Cytotoxicity against human THP1 cells assessed as cell viability at 10 ug/ml after 24 hrs by CCK-8 assay; format: cell-based; conditions: THP-1 cells, read-out: Activity

Check out these entries, answers already filled in.
{"chemical-smiles": "CCOC(=O)c1cn(-c2ccc(Cl)cc2)nc1-c1sc(N(C)c2ccccc2)nc1-c1ccccc1", "result": "23%"}
{"chemical-smiles": "CCOC(=O)c1cn(-c2ccc([N+](=O)[O-])cc2[N+](=O)[O-])nc1-c1sc(N(C)c2ccccc2)nc1-c1ccccc1", "result": "17%"}

Give the value of viability at 24 h, 10 ug/ml reported for the following: `CCOC(=O)c1cn(-c2ccccc2)nc1-c1sc(N(C)c2ccccc2)nc1-c1ccccc1`
25%

Check the records and state viability at 24 h, 10 ug/ml for `CCOC(=O)c1c[nH]nc1-c1sc(N(Cc2ccccc2)c2ccccc2)nc1-c1ccccc1`
23%

Give a short answer stating reported viability at 24 h, 10 ug/ml for `CCOC(=O)c1cn(-c2ccccc2)nc1-c1sc(N(CC)c2ccccc2)nc1-c1ccccc1` .
23%

For the compound `CCOC(=O)c1cn(-c2ccccc2)nc1-c1sc(N(Cc2ccccc2)c2ccccc2)nc1-c1ccccc1` , give its measured viability at 24 h, 10 ug/ml value.
21%

// provenance: ChEMBL document CHEMBL2424627
